- assayRemarks: Stability in pH 3 buffer assessed as rate constant of compound hydrolysis at 37 degC by 31P NMR analysis
- Format: physicochemical
reportedEndpoint: K (×10⁻¹ /hr)

[
  {
    "structureSmilesString": "CC(=O)NCCOP(=O)([O-])N[C@@H](Cc1ccc(O)c(O)c1)C(=O)[O-].[K+].[K+]",
    "K [×10⁻¹ /hr]": 4
  },
  {
    "structureSmilesString": "CCOC(=O)CCOP(=O)([O-])N[C@@H](Cc1ccc(O)c(O)c1)C(=O)[O-].[K+].[K+]",
    "K [×10⁻¹ /hr]": 4
  }
]

A = CCOC(=O)[C@@H](NC(C)=O)[C@@H](C)OP(=O)([O-])N[C@@H](Cc1ccc(O)c(O)c1)C(=O)[O-].[K+].[K+]
B = O=C([O-])CCCOP(=O)([O-])N[C@@H](Cc1ccc(O)c(O)c1)C(=O)[O-].[K+].[K+].[K+]
// query Among A and B , whose measured K is the smaller figure? Selection: enter the item's label.
// result A
(A: 1.2 ×10⁻¹ /hr, B: 5.4 ×10⁻¹ /hr)

---

Parameter: half-life. Scope: all listed entries.
- assayRemarks: Stability in pH 7.4 buffer assessed as half life at 37 degC by 31P NMR analysis
- Assay type: physicochemical
- conditionLabel: pH 7.4 buffer

Example entries and their recorded answers appear below.
[
  {
    "structureSmilesString": "CCOC(=O)CCOP(=O)([O-])N[C@@H](Cc1ccc(O)c(O)c1)C(=O)[O-].[K+].[K+]",
    "endpointResult": "> 8 h"
  },
  {
    "structureSmilesString": "O=C([O-])CCOP(=O)([O-])N[C@@H](Cc1ccc(O)c(O)c1)C(=O)[O-].[K+].[K+].[K+]",
    "endpointResult": "< 0.0833 h"
  },
  {
    "structureSmilesString": "CC(=O)N[C@H](C(=O)[O-])[C@@H](C)OP(=O)([O-])N[C@@H](Cc1ccc(O)c(O)c1)C(=O)[O-].[K+].[K+].[K+]",
    "endpointResult": "0.92 h"
  },
  {
    "structureSmilesString": "O=C([O-])CCCOP(=O)([O-])N[C@@H](Cc1ccc(O)c(O)c1)C(=O)[O-].[K+].[K+].[K+]",
    "endpointResult": "> 8 h"
  },
  {
    "structureSmilesString": "CC(=O)N[C@@H](COP(=O)([O-])NCCc1ccc(O)c(O)c1)C(=O)[O-].[K+].[K+]",
    "endpointResult": "12.1 h"
  },
  {
    "structureSmilesString": "CCOC(=O)[C@@H](NC(C)=O)[C@@H](C)OP(=O)([O-])N[C@@H](Cc1ccc(O)c(O)c1)C(=O)[O-].[K+].[K+]",
    "endpointResult": "> 8 h"
  },
  {
    "structureSmilesString": "CC(=O)NCCOP(=O)([O-])N[C@@H](Cc1ccc(O)c(O)c1)C(=O)[O-].[K+].[K+]",
    "endpointResult": "> 8 h"
  }
]

Query molecule follows.
// query Looking for the measured half-life of "CCOC(=O)[C@H](COP(=O)([O-])N[C@@H](Cc1ccc(O)c(O)c1)C(=O)[O-])NC(C)=O.[K+].[K+]" , can you help?
// result > 8 h
